# testedOn: acetylcholine receptor
# protocolNotes: SPR, AchR immobilised on chip, peptide 10 uM
endpointLabel: Binding affinity (RU)

# binder, recordedValue
records = [
    ("RYPFK [5mer-1125]", 29),
    ("RKSIQR [6mer-1-216]", 148),
    ("KYKNR [5mer-1101]", 11),
    ("KRQRTK [6mer-1-231]", 136),
    ("KNEMR [5mer-841]", 22),
    ("KKGRLK [6mer-1-266]", 144),
    ("KKQVTR [6mer-1-218]", 126),
    ("RKSLSK [6mer-1-254]", 137),
    ("KAPEK [5mer-847]", 28),
    ("RKSGK [5mer-809]", 15),
    ("RKSRYK [6mer-1-237]", 137),
    ("RKTFR [5mer-1114]", 28),
    ("RAAGK [5mer-831]", 24),
    ("RMHER [5mer-832]", 18),
    ("KRRYRK [6mer-1-259]", 141),
    ("RMNIK [5mer-834]", 15),
    ("RDWFR [5mer-1148]", 24),
    ("RKNKK [5mer-807]", 20),
    ("RPWKR [5mer-1100]", 24),
    ("RYTER [5mer-1106]", 18),
    ("RNPIR [5mer-1108]", 19),
    ("KKRRRK [6mer-1-223]", 133),
    ("RKSYTK [6mer-1-263]", 146),
    ("RKVLCR [6mer-1-239]", 136),
    ("KRVIYK [6mer-1-228]", 139),
]

Data origin, for the record: patent US20250011363A1
